# System: HCI-016 (organoid from a triple-negative breast cancer xenograft)
# experiment-description: CTG-3D luminescence at 96 h relative to day-0 seeding control (ratio to day 0); higher = more growth / less cytotoxicity; PDxO 3D drug screen, 96 h, CTG-3D normalised to day-0 seeding control.
# condition-notes: 0.00025 µM; days in culture: 172
Record form. Attribute: CTG-3D luminescence at 96 h. Fill in for each entry.
One number for each entry.

Study these solved cases before continuing.
compound	tested-target	CTG-3D luminescence at 96 h
C[C@@H]1COCCN1c1cc(C2([S@](C)(=N)=O)CC2)nc(-c2cc[nH]c3nccc2-3)n1	HCI-016	1.91
C/C=C1\NC(=O)[C@H]2CSSCC/C=C/[C@H](CC(=O)N[C@H](C(C)C)C(=O)N2)OC(=O)[C@H](C(C)C)NC1=O	HCI-016	1.31
COc1cccc2c1C(=O)c1c(O)c3c(c(O)c1C2=O)C[C@@](O)(C(=O)CO)C[C@@H]3O[C@H]1C[C@H](N)[C@H](O)[C@H](C)O1	HCI-016	1.45
O=C(c1ccc(F)c(F)c1Nc1ccc(I)cc1F)N1CC(O)([C@@H]2CCCCN2)C1	HCI-016	1.92

Could you tell me CTG-3D luminescence at 96 h for each of these compounds? They are listed below.
1. C=CC(=O)N1CCC[C@@H](n2nc(-c3ccc(Oc4ccccc4)cc3)c3c(N)ncnc32)C1
2. C=CCn1c(=O)c2cnc(Nc3ccc(N4CCN(C)CC4)cc3)nc2n1-c1cccc(C(C)(C)O)n1
3. NC(=O)Nc1cc(-c2cccc(F)c2)sc1C(=O)N[C@H]1CCCNC1
4. C[C@]12CC[C@@H]3c4ccc(O)cc4C[C@@H](CCCCCCCCC[S+]([O-])CCCC(F)(F)C(F)(F)F)[C@H]3[C@@H]1CC[C@@H]2O (some centres undefined)

Data returned:
[1.45, 1.63, 1.91, 1.77]

Data request: State, in one line, measured CTG-3D luminescence at 96 h of `Nc1ccn([C@@H]2O[C@H](CO)[C@@H](O)C2(F)F)c(=O)n1`
Data returned: 1.97

====

# System: HCI-016
# experiment-description: CTG-3D luminescence at 96 h relative to day-0 seeding control (ratio to day 0); higher = more growth / less cytotoxicity; PDxO 3D drug screen (set 2), 96 h, CTG-3D normalised to day-0 seeding control.
# condition-notes: 0.00025 µM; days in culture: 397
Record form. Attribute: CTG-3D luminescence at 96 h. Fill in for each entry.
One number for each entry.

Study these solved cases before continuing.
> print(dat)
                                   compound  quantitative.result
1  CS(=O)(=O)CCNCc1ccc(-c2ccc3ncnc(Nc4ccc(OCc5cccc(F)c5)c(Cl)c4)c3c2)o1 [lapatinib]                 2.19
2  CCOc1ccn(-c2ccc(F)cc2)c(=O)c1C(=O)Nc1ccc(Oc2ccnc(N)c2Cl)c(F)c1 [ASLAN002]                 2.37
3  O=C(c1cc(Cc2n[nH]c(=O)c3ccccc23)ccc1F)N1CCN(C(=O)C2CC2)CC1 [olaparib]                 2.56

Moving on to another compound below.
Data request: State, in one line, measured CTG-3D luminescence at 96 h of CC(=O)c1c(C)c2cnc(Nc3ccc(N4CCNCC4)cn3)nc2n(C2CCCC2)c1=O [palbociclib]
Data returned: 2.56
